test system: HCT-116; assay: Antiproliferative activity against human HCT116 cells measured after 48 hrs by SRB assay; assay type: functional, cell-based; conditions: HCT-116, 48 h
VALUE_TYPE: pIC50
Answers are plain numbers, as −log10 of the molar value.

Give the measured pIC50 of `CSc1nn2c(NC3CCCCC3)cc(-c3ccccc3)nc2c1C#N` . 8.70

---

test system: Staphylococcus aureus; assay: Antibacterial activity against Staphylococcus aureus NCTC 7447 assessed as zone of inhibition at 1 mg/ml measured after 24 hrs by agar diffusion method; assay type: functional; details: NCTC 7447, 24 h, read-out: IZ
VALUE_TYPE: zone of inhibition at 1000 µg/mL

COc1ccc(NS(=O)(=O)c2ccc(/N=N/c3c(=O)[nH]n4c(-c5nccc(C)n5)c(C#N)c(N)nc34)cc2)cc1 :: 12 to 14 mm
COc1ccccc1NS(=O)(=O)c1ccc(/N=N/c2c(=O)[nH]n3c(-c4ncccn4)c(C#N)c(N)nc23)cc1 :: 15 to 18 mm
COc1ccc(NS(=O)(=O)c2ccc(/N=N/c3c(=O)[nH]n4c(-c5ncccn5)c(C#N)c(N)nc34)cc2)cc1 :: 12 to 14 mm

Give the measured zone of inhibition at 1000 µg/mL of `COc1ccccc1NS(=O)(=O)c1ccc(/N=N/c2c(=O)[nH]n3cc(C#N)c(N)nc23)cc1` . 9 to 11 mm

---

target: Gamma-aminobutyric acid receptor subunit alpha-5 (Rattus norvegicus); test: Displacement of [3H]RO15-1788 from recombinant rat GABAalpha5 receptor expressed in HEK293 cells after 1 hr
Sequence (P19969 whole entry): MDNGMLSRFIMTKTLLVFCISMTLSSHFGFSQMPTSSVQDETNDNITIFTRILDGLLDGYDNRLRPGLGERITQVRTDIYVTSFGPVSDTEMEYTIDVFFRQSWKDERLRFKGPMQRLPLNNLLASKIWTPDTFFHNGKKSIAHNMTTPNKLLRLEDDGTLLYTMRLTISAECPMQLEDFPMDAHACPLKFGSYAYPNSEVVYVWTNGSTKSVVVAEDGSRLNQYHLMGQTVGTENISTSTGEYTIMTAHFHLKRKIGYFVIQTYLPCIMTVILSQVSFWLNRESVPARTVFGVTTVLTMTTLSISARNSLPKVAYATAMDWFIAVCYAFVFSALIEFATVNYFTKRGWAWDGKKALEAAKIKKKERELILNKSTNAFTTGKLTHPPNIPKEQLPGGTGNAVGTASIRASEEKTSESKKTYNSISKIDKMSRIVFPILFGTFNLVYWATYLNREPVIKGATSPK
VALUE_TYPE: Ki (nM)
One number for each entry, in nM.

Give the measured Ki of `O=c1c(-c2ccsc2)c[nH]c2c(-c3ccccn3)cnn12` . 740

---

experiment: Displacement of [3H]RO15-1788 from benzodiazepine receptor in recombinant bovine brain membranes expressed in HEK293 cells after 1 hr; type: cell-based, Bos taurus, Membrane
Assignment: determine reported pKi for the given compounds.
Give bare numbers, as −log10 of the molar value.

O=c1c(-c2ccsc2)c[nH]c2c(-c3ccccn3)cnn12 :: 8.41

Give the measured pKi of CN1C(=O)CN=C(c2ccccc2)c2cc(Cl)ccc21 [DIAZEPAM] . 8.00

---

biological target: UniProtKB P16257; experiment: Displacement of [3H]PK11195 from PBZR in rat kidney mitochondrial membranes measured after 90 mins by liquid scintillation counting; assay type: cell membranes
Sequence (P16257 whole entry, looked up): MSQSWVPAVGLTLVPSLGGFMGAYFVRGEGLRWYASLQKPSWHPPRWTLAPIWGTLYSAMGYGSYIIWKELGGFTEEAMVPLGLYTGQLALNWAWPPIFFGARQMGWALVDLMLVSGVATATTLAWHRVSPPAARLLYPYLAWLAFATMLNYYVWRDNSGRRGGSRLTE
VALUE_TYPE: Ki (nM)
Answers are plain numbers, in nM.

Please review the entries below; each comes with its answer.
CCC(CC)C(=O)Cc1c(-c2ccc(Cl)cc2)nn2c(C)cc(C)nc12 :: 2.4
CCC(CC)C(=O)Cc1c(-c2ccc(OC)cc2)nn2c(C)cc(C)nc12 :: 4.7

For each of the items listed, what is its Ki?
1. CCC(CC)C(=O)Cc1c(-c2ccc(Cl)cc2)nn2c(C)cc(-c3ccccc3)nc12
2. CCC(CC)C(=O)Cc1c(-c2ccc(C)cc2)nn2c(C)cc(C)nc12

1. 3.4
2. 0.8

---

Assignment: determine reported zone of inhibition at 1000 µg/mL for the given compounds.
system: Serratia marcescens; assay: Antibacterial activity against Serratia marcescens IMRU 70 assessed as zone of inhibition at 1 mg/ml measured after 24 hrs by agar diffusion method; format: functional; settings: IMRU 70, 24 h, read-out: IZ

Please review the entries below; each comes with its answer.
COc1ccccc1NS(=O)(=O)c1ccc(/N=N/c2c(=O)[nH]n3cc(C#N)c(N)nc23)cc1 :: 12 to 14 mm
COc1ccc(NS(=O)(=O)c2ccc(/N=N/c3c(=O)[nH]n4c(-c5ncccn5)c(C#N)c(N)nc34)cc2)cc1 :: 15 to 18 mm
COc1ccc(NS(=O)(=O)c2ccc(/N=N/c3c(=O)[nH]n4c(-c5nccc(C)n5)c(C#N)c(N)nc34)cc2)cc1 :: 15 to 18 mm

Would you kindly look at the next entry?
Give the measured zone of inhibition at 1000 µg/mL of `COc1ccccc1NS(=O)(=O)c1ccc(/N=N/c2c(=O)[nH]n3c(-c4ncccn4)c(C#N)c(N)nc23)cc1` . 12 to 14 mm
